- Tested on: Lefty1
- PROTOCOL_NOTES: Lefty1 binders on small-molecule microarrays, primary screen, biochemical, small-molecule microarray, 635/667 nm fluorescence (AID 1139)
- APPLIED_CONDITIONS: small-molecule microarray binding, fluorescence 635/667; higher = more signal
Use TRUE when the recorded composite z-score is no lower than 0.6; use FALSE when it is lower.

Please review the following examples before continuing.
| COMPOUND | ANSWER_LABEL |
| --- | --- |
| COCCCNC(=O)[C@]1(Cc2ccccc2CN=[N+]=[N-])N=C(c2ccc(OCCCO)cc2)O[C@@H]1c1ccccc1 | FALSE |
| O=C1O[C@@H](c2ccccc2)[C@@H](c2ccccc2)N2[C@@H](c3ccccc3OCCO)[C@]3(C(=O)Nc4ccc(C#CCCO)cc43)[C@@H](C(=O)Nc3nc4ccccc4s3)[C@H]12 | TRUE |

**Q:** Does composite z-score meet or surpass 0.6 for "C=C(CCCC)/C(=C/C[C@@H](OC(C)=O)c1ccc(CO)o1)c1cc(C(=O)OC)ccc1OC" ?
**A:** TRUE

**Q:** Would you say "CN(C)C(=O)[C@@]1(Cc2ccccc2N=[N+]=[N-])COC(c2ccc(OCCCO)cc2)=N1" shows composite z-score at minimum 0.6?
**A:** FALSE

**Q:** Given the entry "Cc1ccc(F)cc1S(=O)(=O)N[C@@H]1CCN(Cc2ccc(Oc3ccccc3)cc2)C1" , answer whether its composite z-score meets or surpasses 0.6.
**A:** TRUE

**Q:** In plain terms: is recorded composite z-score at least 0.6 for "CO[C@H]1O[C@H](CO)[C@@H](OC(=O)Nc2ccc(Oc3ccccc3)cc2)[C@H](OC(=O)Nc2ccccc2-c2ccccc2)[C@@H]1OC(=O)Nc1ccccc1-c1ccccc1" ?
**A:** TRUE

**Q:** Given CC(C)C(CO)N1C(=O)[C@]2(C)C3C(=O)OCCC/C=C\[C@H]3OC23C=CCN(c2ccc(Cl)cc2)C(=O)[C@@H]13 (stereo not given in full) , state whether its composite z-score is at least 0.6.
**A:** FALSE

**Q:** API: above_or_equal(metric=composite z-score, cutoff=0.6) for item "C=C(/C(=C/C[C@@H](OC(=O)c1ccncc1)c1ccc(OCCO)cc1)c1cc(C(=O)OC)ccc1OC)C(C)C"
**A:** TRUE

**Q:** Decide: composite z-score of "Cc1ccc(S[C@]2(C(=O)NCC(C)C)CC(=O)N(Cc3ccccc3Cl)[C@@H]2c2ccc(CO)cc2I)cc1" >= 0.6?
**A:** FALSE

**Q:** Identify whether the reported composite z-score of the following compound is 0.6 or greater: "C=C[C@H](COC(C)=O)NS(=O)(=O)c1ccc(Br)cc1"
**A:** FALSE

**Q:** Say whether NC(=O)N1C(=O)C2C(C1=O)C1C=C(c3ccc(CO)cc3)C2C(C2CC2)N1Cc1sc2ccccc2c1Cl (stereo not given) shows composite z-score of 0.6 or more.
**A:** TRUE

**Q:** For this compound, is measured composite z-score 0.6 or higher? CC=CC(O)C1C=CC2C(=O)N(C)C(=O)C2N1N1CCCCC1 (stereo not given)
**A:** FALSE

**Q:** Please tell me: is the compound "COc1ccc([Si](C)(C)[C@H]2[C@H](CCn3cc([C@H](O)c4ccccc4)nn3)O[C@@]3(C(=O)N(Cc4ccc(N5CCOC5=O)cc4)c4ccccc43)[C@@H]2C)cc1" at or over 0.6 in terms of composite z-score?
**A:** FALSE

**Q:** API: above_or_equal(metric=composite z-score, cutoff=0.6) for item "CON(C)C(=O)C=C1C[C@@H](c2cccc(Cl)c2)O[C@@H](c2cccc(Cl)c2)O1"
**A:** TRUE

**Q:** Can "O=C1NCC(=O)N2[C@@H]1C[C@@H](C(=O)O)[C@H]2c1ccc(O)cc1" be said to have composite z-score at or above 0.6?
**A:** TRUE

**Q:** Determine whether this compound has composite z-score no lower than 0.6: CCCCN1CC=CC23O[C@@H]4/C=C\CCC(C)OC(=O)C4[C@H]2C(=O)N(CCCCCCO)[C@@H]3C1=O (stereo not given in full)
**A:** FALSE

**Q:** Please tell me: is the compound "[N-]=[N+]=NCc1ccccc1[C@H]1OC(c2ccc(OCCCO)cc2)=N[C@@]1(CCS(=O)(=O)c1ccccc1)C(N)=O" at or over 0.6 in terms of composite z-score?
**A:** FALSE

**Q:** // inclusive: composite z-score at least 0.6? input: "CCOC(=O)[C@H]1C/C=C/C[C@H](C(=O)OCC)C(=O)O[C@H]2[C@@H](OC)O[C@H](CO)[C@@H](OC(=O)Nc3ccc(OC)cc3)[C@@H]2OC1=O"
**A:** TRUE

**Q:** Please indicate if the recorded composite z-score for "Cc1c(NC(=O)/C(C#N)=C/C=C/c2ccc(N(C)C)cc2)c(=O)n(-c2ccccc2)n1C" meets or exceeds 0.6.
**A:** FALSE

**Q:** Reported composite z-score reaches at least 0.6 for "C=CCOC(=O)[C@H]1[C@@H]2C(=O)O[C@@H](c3ccccc3)[C@@H](c3ccccc3)N2[C@@H](c2ccc(OCCOC(=O)[C@H]3C[C@H]4C(=O)N[C@@H](Cc5ccccc5)C(=O)N4[C@H]3c3cccc(OCCO)c3)cc2)[C@]12C(=O)Nc1ccc(I)cc12" ?
**A:** TRUE

----------
So I've got a bunch of compounds here, and I need their z-score values.
- PROTOCOL_NOTES: yeast growth modulation, basal conditions, primary screen, YJM789 clinical isolate, OD600, 24 h (AID 1089);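 further: growth of clinical yeast isolate S. cerevisiae YJM 789 seeded 1000 cells per well; test concentration not given here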
- APPLIED_CONDITIONS: S. cerevisiae YJM789 growth, higher = more signal, called active from +8 up or from −8 down
One number for each entry.

Example entries begin here.
| COMPOUND | z-score |
| --- | --- |
| COCCOC(=O)N1C(=O)[C@@]2(c3cc(C#Cc4ccc(OC)cc4)ccc31)[C@H](C(=O)N1CCN(c3ncccn3)CC1)[C@H]1C(=O)O[C@H](c3ccccc3)[C@H](c3ccccc3)N1[C@@H]2c1ccccc1OCCO | 3.33 |
| O=C1O[C@@H](c2ccccc2)[C@@H](c2ccccc2)N2[C@@H](c3ccc(O)cc3)[C@]3(C(=O)Nc4ccc(C#CCCO)cc43)[C@@H](C(=O)NC[C@H](O)c3ccccc3)[C@H]12 | 0.235 |
| COc1cc2c(cc1O)C(C)N(Cc1cc3c(cc1Br)OCO3)CC2 (centres undefined) | 0.406 |
| C=CC[C@@H](OC(=O)Nc1ccc(OC)cc1)c1ccc(OCCO)cc1 | -0.348 |
| COCC(=C=CC[C@H](O)c1cccc(OCCO)c1)C[C@H](O)c1ccccn1 | 0.941 |

Batch request: z-score per item, same order as input.
1. CCOC(=O)C1=CC[C@@H](c2ccccc2)N(S(=O)(=O)c2ccc(C)cc2)C1
2. O=C(CS)NCCCCCCNC(=O)[C@@H]1C[C@@H]2C(=O)N3CCC[C@H]3C(=O)N2[C@@H]1c1cccc(OCCO)c1
3. NC(=O)N1C(=O)C2C(C1=O)C1C=C(c3ccc(CO)cc3)C2C(C2CC2)N1Cc1sc2ccccc2c1Cl (centres undefined)
4. C=C(CCCC)/C(=C/C[C@@H](OC(C)=O)c1ccc(CO)o1)c1cc(C(=O)OC)ccc1OC

**A:**
[0.483, -1.69, 2.22, 0.562]

----------
Assignment: determine reported z-score for the given compounds.
- PROTOCOL_NOTES: inhibitors of hydroxyurea-induced Chk1 phosphorylation, primary screen, imaging, HeLa, phospho-Chk1 antibody, percent positive cells (AID 1186)
- APPLIED_CONDITIONS: hydroxyurea-induced phospho-Chk1 immunofluorescence imaging, higher = more signal
Give bare numbers.

Worked examples follow.
| COMPOUND | MEASURED_VALUE |
| --- | --- |
| CCOC(=O)C1=C[C@@H](c2ccccc2)N(S(=O)(=O)c2ccc(C)cc2)[C@H]1c1cccc(Cl)c1 | 0.289 |
| CCOc1cc(C(O)C2C=CC3C(=O)N(C4CCCCC4)C(=O)C3N2Nc2ccc(OC)cc2)ccc1O (configuration not stated) | -0.509 |
| COCCOC(=O)N1C(=O)[C@@]2(c3ccccc31)[C@H](C(=O)N1CCN(c3ncccn3)CC1)[C@H]1C(=O)O[C@H](c3ccccc3)[C@H](c3ccccc3)N1[C@@H]2c1ccc(OCCO)cc1 | 0.065 |
| C=CCNC(=O)[C@H]1[C@@H]2C(=O)O[C@@H](c3ccccc3)[C@@H](c3ccccc3)N2[C@@H](c2ccccc2OCCO)[C@]12C(=O)N(C(=O)OCCOC)c1ccc(C#CC3=CCCCC3)cc12 | 0.557 |
| CCCCC(CC)C(O)C1C=CC2C(=O)N(c3ccccc3)C(=O)C2N1Nc1ccc([N+](=O)[O-])cc1 (configuration not stated) | 0.332 |
| CC(C)C(O)C1C=CC2C(=O)N(C)C(=O)C2N1Nc1ccccc1 (configuration not stated) | 0.331 |

Look at each compound and report its z-score.
1. C=CCC(OC(C)=O)[C@@H]1[C@@H](N(Cc2cc3ccccc3o2)C(=O)Cc2ccc(F)cc2)c2cc(OCCCO)ccc2N1C(=O)c1ccc2ccccc2n1 (some centres not stated)
2. CC(C)CN1C(=O)[C@@]2(c3ccc([N+](=O)[O-])cc3)CC(=O)N(CC34CC5CC(CC(C5)C3)C4)[C@@H]2c2ccc(CO)cc21

**A:**
1: 0.702; 2: 0.016

Lab note: each compound below needs its z-score filled in.
1. CCOC(=O)C[C@H]1[C@H](OC(=O)Cc2ccc3c(c2)OCO3)[C@@H](NC(=O)C2CCCCC2)c2cc(OCCCO)ccc2N1C(=O)c1ccc2ccccc2n1
2. O=C1NC(=O)C2C1C=CC(C(O)c1cc(C(F)(F)F)cc(C(F)(F)F)c1)N2Nc1ccc(Cl)cc1Cl (configuration not stated)
3. C=CCN1C(=O)[C@@]2(O[C@@H](CCO)[C@H]([Si](C)(C)c3ccc(OC)cc3)[C@H]2C)c2cc(N3C(=O)c4ccccc4Oc4ccccc43)ccc21

**A:**
1: 0.404; 2: 1.15; 3: -0.948
